Tested on: Enterococcus
assay_method_text: In vitro antimicrobial activity against Vancomycin resistant enterococcus strain UCD-3
Assay type: functional
experimental_endpoint: MIC (µM)

compound: CC(C)CCn1cc(NC(=O)c2ccc3cc(C(=O)Nc4cc(C(=O)NCCC(=N)N)n(CCC(C)C)c4)ccc3c2)cc1C(=O)NCCC(=N)N
experimental_endpoint: MIC
bound_sign: >
measured_value: 45.5
--
compound: C/N=C(\N)CCNC(=O)c1cc(NC(=O)c2ccc(C(=O)Nc3cc(C(=O)NCC/C(N)=N/C)n(CCC(C)C)c3)cc2)cn1CCC(C)C
experimental_endpoint: MIC
bound_sign: =
measured_value: 1.4
--
compound: CC(C)CCn1cc(NC(=O)c2ccnc(C(=O)Nc3cc(C(=O)NCCC(=N)N)n(CCC(C)C)c3)c2)cc1C(=O)NCCC(=N)N
experimental_endpoint: MIC
bound_sign: =
measured_value: 22.7
--
compound: Cn1cc(NC(=O)c2ccc(C(=O)Nc3cc(C(=O)NCCC(=N)N)n(C)c3)cc2)cc1C(=O)NCCC(=N)N
experimental_endpoint: MIC
bound_sign: >
measured_value: 45.5
--
compound: CC(C)CCn1cc(NC(=O)c2ccc(C(=O)Nc3cc(C(=O)NCCC4=NCCCN4)n(CCC(C)C)c3)cc2)cc1C(=O)NCCC1=NCCCN1
experimental_endpoint: MIC
bound_sign: =
measured_value: 0.7
--
compound: CC(C)CCn1cc(NC(=O)C2CCC(C(=O)Nc3cc(C(=O)NCCC(=N)N)n(CCC(C)C)c3)CC2)cc1C(=O)NCCC(=N)N (configuration not stated)
experimental_endpoint: MIC
bound_sign: >
measured_value: 45.5
--
compound: CC(C)CCn1cc(NC(=O)c2ccc(C(=O)Nc3cc(C(=O)NCCN=C(N)N)n(CCC(C)C)c3)cc2)cc1C(=O)NCCN=C(N)N
experimental_endpoint: MIC
bound_sign: =
measured_value: 1.4

###

Tested on: Nucleic Acid
assay_method_text: DNA binding measured as Changes in the DNA melting temperature of an AT-rich dodecamer (CGATTATTAAGC) (GCTTAATAATCG) upon binding of an equimolar amount of compound
Assay type: nucleic-acid assay

smiles_data: CCC/N=C(\N)CCNC(=O)c1cc(NC(=O)c2ccc(C(=O)Nc3cc(C(=O)NCC/C(N)=N/CCC)n(CCC(C)C)c3)cc2)cn1CCC(C)C
readout_units: °C
ΔTm: 26
--
smiles_data: C/N=C(/CCNC(=O)c1cc(NC(=O)c2ccc(C(=O)Nc3cc(C(=O)NCC/C(=N/C)NC)n(CCC(C)C)c3)cc2)cn1CCC(C)C)NC
readout_units: °C
ΔTm: 26
--
smiles_data: CC(C)CCn1cc(NC(=O)c2ccc(C(=O)Nc3cc(C(=O)NCCC(=N)N)n(CCC(C)C)c3)c([N+](=O)[O-])c2)cc1C(=O)NCCC(=N)N
readout_units: °C
ΔTm: 25
--
smiles_data: CC(C)CCn1cc(NC(=O)c2ccc(C(=O)Nc3cc(C(=O)NCCC(=N)N)n(CCC(C)C)c3)c3ccccc23)cc1C(=O)NCCC(=N)N
readout_units: °C
ΔTm: 20
--
smiles_data: N=C(N)CCNC(=O)c1cc(NC(=O)c2ccc(C(=O)Nc3cc(C(=O)NCCC(=N)N)n(CC4CC4)c3)nc2)cn1CC1CC1
readout_units: °C
ΔTm: 27
--
smiles_data: Cc1cc(C(=O)Nc2cc(C(=O)NCCC(=N)N)n(CC3CC3)c2)ccc1C(=O)Nc1cc(C(=O)NCCC(=N)N)n(CC2CC2)c1
readout_units: °C
ΔTm: 26

###

Tested on: Enterococcus
assay_method_text: In vitro antimicrobial activity against Vancomycin resistant enterococcus strain UCD-3
Format: functional
Catalogue of compounds with associated log10 of MIC
experimental_endpoint: log10 of MIC (log10 of the value in µM)

smiles_data: CCC/N=C(\N)CCNC(=O)c1cc(NC(=O)c2ccc(C(=O)Nc3cc(C(=O)NCC/C(N)=N/CCC)n(CCC(C)C)c3)cc2)cn1CCC(C)C
measured_target: Enterococcus
log10 of MIC: 0.15
--
smiles_data: N=C(N)CCNC(=O)c1cc(NC(=O)c2ccc(C(=O)Nc3cc(C(=O)NCCC(=N)N)n(CC4CC4)c3)cc2)cn1CC1CC1
measured_target: Enterococcus
log10 of MIC: -0.15
--
smiles_data: N=C(N)CCNC(=O)c1cc(NC(=O)c2cc(C(=O)Nc3cc(C(=O)NCCC(=N)N)n(CC4CC4)c3)[nH]n2)cn1CC1CC1
measured_target: Enterococcus
log10 of MIC: 0.76
--
smiles_data: CCCn1cc(NC(=O)c2ccc(C(=O)Nc3cc(C(=O)NCCC(=N)N)n(CCC)c3)cc2)cc1C(=O)NCCC(=N)N
measured_target: Enterococcus
log10 of MIC: 0.75
--
smiles_data: N=C(N)CCNC(=O)c1cc(NC(=O)c2ccc(C(=O)Nc3cc(C(=O)NCCC(=N)N)n(CC4CC4)c3)nc2)cn1CC1CC1
measured_target: Enterococcus
log10 of MIC: 0.45
--
smiles_data: Cc1cc(C(=O)Nc2cc(C(=O)NCCC(=N)N)n(CCC(C)C)c2)ccc1C(=O)Nc1cc(C(=O)NCCC(=N)N)n(CCC(C)C)c1
measured_target: Enterococcus
log10 of MIC: 0.15
--
smiles_data: CC(C)CCn1cc(NC(=O)c2ccc(C(=O)Nc3cc(C(=O)NCCN)n(CCC(C)C)c3)cc2)cc1C(=O)NCCN
measured_target: Enterococcus
log10 of MIC: 1.06
--
smiles_data: N=C(N)CCNC(=O)c1cc(NC(=O)c2ccc(C(=O)Nc3cc(C(=O)NCCC(=N)N)n(CC4CC4)c3)s2)cn1CC1CC1
measured_target: Enterococcus
log10 of MIC: 0.45

###

Tested on: Enterococcus
assay_method_text: In vitro antimicrobial activity against Vancomycin resistant enterococcus strain BM4147
Format: functional

compound: CC(C)CCn1cc(NC(=O)c2ccc3cc(C(=O)Nc4cc(C(=O)NCCC(=N)N)n(CCC(C)C)c4)ccc3c2)cc1C(=O)NCCC(=N)N
MIC: > 45.5 µM
//
compound: Cn1cc(NC(=O)c2cc(NC(=O)c3cc(NC=O)cn3C)cn2C)cc1C(=O)NCCC(=N)N [STALLIMYCIN]
MIC: > 45.5 µM
//
compound: Cc1cc(C(=O)Nc2cc(C(=O)NCCC(=N)N)n(CCC(C)C)c2)c(C)cc1C(=O)Nc1cc(C(=O)NCCC(=N)N)n(CCC(C)C)c1
MIC: > 45.5 µM
